All figures here come from paper PMC5540273.

# Tested on: BUB1
# measurement context: concentration: 1 μM, replicates: in singlicate; n = 1;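 further: KINOMEscan kinase panel screen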
# %Inh binned as low (below 2%), intermediate (2% to below 40%), high (40% or more)

[
  {
    "compound": "Cc1ccc(NC(=O)Nc2ccc(Cl)c(C(F)(F)F)c2)cc1-c1ccc(C(=O)Nc2ccncc2)cc1",
    "target or test system": "BUB1",
    "qualitative label": "intermediate"
  },
  {
    "compound": "CC(=O)c1c(C)c2cnc(Nc3ccc(N4CCNCC4)cn3)nc2n(C2CCCC2)c1=O",
    "target or test system": "BUB1",
    "qualitative label": "low"
  },
  {
    "compound": "CS(=O)(=O)CCNCc1nc(-c2ccc3ncnc(Nc4ccc5c(cnn5Cc5ccccc5)c4)c3c2)cs1.Cl.Cl",
    "target or test system": "BUB1",
    "qualitative label": "high"
  },
  {
    "compound": "CS(=O)(=O)CCNCc1nc(-c2ccc3ncnc(Nc4ccc(OCc5ccccc5)c(Cl)c4)c3c2)cs1.Cl",
    "target or test system": "BUB1",
    "qualitative label": "high"
  },
  {
    "compound": "Cc1nccc(-c2c(-c3ccc(F)cc3)ncn2CCCN2CCOCC2)n1.Cl",
    "target or test system": "BUB1",
    "qualitative label": "low"
  },
  {
    "compound": "CCn1c(-c2c(N)noc2C)nc2cnccc21",
    "target or test system": "BUB1",
    "qualitative label": "intermediate"
  },
  {
    "compound": "Cc1ccccc1-c1cc(-c2c[nH]nc2-c2ccccn2)ccn1",
    "target or test system": "BUB1",
    "qualitative label": "intermediate"
  },
  {
    "compound": "COc1ccc(CSc2nnc(-c3ccc4ncsc4c3)o2)cc1C(F)(F)F",
    "target or test system": "BUB1",
    "qualitative label": "low"
  },
  {
    "compound": "CNc1cc(-c2ccc3c(N)n[nH]c3c2)nc(N)n1",
    "target or test system": "BUB1",
    "qualitative label": "high"
  },
  {
    "compound": "CNc1nc(-c2ccc3c(N)n[nH]c3c2)cc(N2C[C@@H](C(=O)NC3CCCCC3)OC[C@H]2C)n1",
    "target or test system": "BUB1",
    "qualitative label": "intermediate"
  },
  {
    "compound": "Nc1nccc(-c2c(-c3ccc(F)cc3)ncn2C2CCN(Cc3ccccc3)CC2)n1",
    "target or test system": "BUB1",
    "qualitative label": "intermediate"
  },
  {
    "compound": "Cc1cnc(N)c(/C=C/c2cncc(C(=O)NCCc3ccc(Cl)cc3Cl)c2)c1.Cl",
    "target or test system": "BUB1",
    "qualitative label": "intermediate"
  },
  {
    "compound": "CNc1nc(-c2ccc3c(N)n[nH]c3c2)cc(N2C[C@@H](C(=O)Nc3ccccc3)CC[C@H]2C)n1",
    "target or test system": "BUB1",
    "qualitative label": "intermediate"
  },
  {
    "compound": "COc1ccc(Nc2nccc(N3CCC(NC(=O)C(C)c4ccc(Cl)cc4)CC3)n2)cc1 (centres unmarked)",
    "target or test system": "BUB1",
    "qualitative label": "intermediate"
  },
  {
    "compound": "Nc1cccc(-c2ccc3c(N)n[nH]c3c2)n1",
    "target or test system": "BUB1",
    "qualitative label": "low"
  }
]

====

Reported %Inh values for a set of compounds
# System: ERN1
# measurement context: concentration: 1 μM, replicates: in singlicate; n = 1
assay endpoint: %Inh (%)

[
  {
    "compound": "COC(=O)c1cccc(NC(=O)NC2CCN(c3ccnc(Nc4ccc(F)cc4)n3)C2)c1 (centres unmarked)",
    "assay endpoint": "%Inh",
    "readout number": 0
  },
  {
    "compound": "Cn1cnc2c(N)ncnc21",
    "assay endpoint": "%Inh",
    "readout number": 0
  },
  {
    "compound": "COc1ccc(Nc2nccc(N3CCC(NC(=O)c4cc5ccccc5s4)C3)n2)cc1 (centres unmarked)",
    "assay endpoint": "%Inh",
    "readout number": 0
  },
  {
    "compound": "Fc1ccc(-c2nn3cccc(F)c3c2-c2ccncc2)cc1",
    "assay endpoint": "%Inh",
    "readout number": 0
  },
  {
    "compound": "FC(F)(F)c1ccccc1-c1cc(-c2c[nH]nc2-c2ccccn2)ccn1",
    "assay endpoint": "%Inh",
    "readout number": 10
  },
  {
    "compound": "Cn1cncc1-c1cc2c(Nc3ccc(OCc4ccccc4)cc3)ncnc2cn1",
    "assay endpoint": "%Inh",
    "readout number": 0
  },
  {
    "compound": "CS(=O)(=O)CCNCc1nc(-c2ccc3ncnc(Nc4ccc5c(cnn5Cc5ccccc5)c4)c3c2)cs1.Cl.Cl",
    "assay endpoint": "%Inh",
    "readout number": 0
  },
  {
    "compound": "COc1cccc(CNC(=O)NC2CCN(c3ccnc(Nc4ccc(F)cc4)n3)C2)c1 (centres unmarked)",
    "assay endpoint": "%Inh",
    "readout number": 4
  },
  {
    "compound": "COc1nccc(-c2c(-c3ccc(F)cc3)ncn2CCCN2CCOCC2)n1",
    "assay endpoint": "%Inh",
    "readout number": 16
  },
  {
    "compound": "O=c1cc(N2CCOCC2)nc2n(Cc3cccc(Cl)c3Cl)c3ccccc3n12",
    "assay endpoint": "%Inh",
    "readout number": 18
  },
  {
    "compound": "c1ccc(-c2ccnc3[nH]ccc23)cc1",
    "assay endpoint": "%Inh",
    "readout number": 11
  },
  {
    "compound": "CCn1c(-c2ccccc2)nc2cnccc21",
    "assay endpoint": "%Inh",
    "readout number": 0
  },
  {
    "compound": "CS(=O)(=O)CCNCc1nc(-c2ccc3ncnc(Nc4ccc(OCc5ccccc5)c(Cl)c4)c3c2)cs1.Cl",
    "assay endpoint": "%Inh",
    "readout number": 0
  },
  {
    "compound": "Cc1ccc(NC(=O)Nc2ccccc2)cc1-c1ccc(C(=O)Nc2ccncc2)cc1",
    "assay endpoint": "%Inh",
    "readout number": 0
  },
  {
    "compound": "Cc1cnc(N)c(/C=C/c2cncc(C(=O)NCCc3ccc(Cl)cc3Cl)c2)c1.Cl",
    "assay endpoint": "%Inh",
    "readout number": 0
  },
  {
    "compound": "CC(=O)c1c(C)c2cnc(Nc3ccn(C)n3)nc2n(C2CCCC2)c1=O",
    "assay endpoint": "%Inh",
    "readout number": 0
  },
  {
    "compound": "CN1c2ccc(-c3ccc(C(N)=O)cc3)cc2-c2[nH]ncc2S1(=O)=O",
    "assay endpoint": "%Inh",
    "readout number": 0
  },
  {
    "compound": "CNc1nc(-c2ccc3c(N)n[nH]c3c2)cc(N2C[C@@H](C(=O)Nc3ccccc3)CC[C@H]2C)n1",
    "assay endpoint": "%Inh",
    "readout number": 2
  },
  {
    "compound": "O=C(Nc1n[nH]c2nc(-c3ccco3)c(Br)cc12)C1CCN(Cc2ccccc2)C1.O=C(O)[C@H](O)[C@@H](O)C(=O)O (centres unmarked)",
    "assay endpoint": "%Inh",
    "readout number": 19
  },
  {
    "compound": "Cc1ccccc1Cn1ccn2c(=O)cc(N3CCOCC3)nc12",
    "assay endpoint": "%Inh",
    "readout number": 0
  }
]

====

# Test system: MINK
# Construct: gene MINK1
# measurement context: concentration: 1 μM, replicates: in singlicate; n = 1

[
  {
    "smiles text": "COc1ccc(CSc2nnc(-c3ccc4nccn4c3)o2)cc1C(F)(F)F",
    "%Inh": "12%"
  },
  {
    "smiles text": "COc1ccc2cc(-c3nc(-c4ccccc4C(C)C)[nH]c3-c3ccncc3)ccc2c1",
    "%Inh": "0%"
  },
  {
    "smiles text": "O=C(Nc1n[nH]c2cc(-c3ccsc3)ccc12)C1CC1",
    "%Inh": "67%"
  },
  {
    "smiles text": "Cc1ccc(NC(=O)c2ccc(Cl)cc2)cc1-c1ccc(C(=O)Nc2ccncc2)cc1",
    "%Inh": "0%"
  },
  {
    "smiles text": "CCn1c(-c2ccccc2)nc2cnccc21",
    "%Inh": "0%"
  }
]

====

# Test system: CAMK1D
# measurement context: concentration: 1 μM, replicates: in singlicate; n = 1
Label fulfilled when %Inh is strictly below 8%; at or above that, label not fulfilled.

[
  {
    "compound": "CNC(=O)c1ccc(C)c(-n2c(C)cc(OCc3ccc(F)cc3F)c(Br)c2=O)c1",
    "qualitative label": "fulfilled"
  },
  {
    "compound": "Cc1ccc(NC(=O)Nc2ccc(Cl)cc2)cc1-c1ccc(C(=O)Nc2ccncc2)cc1",
    "qualitative label": "not fulfilled"
  },
  {
    "compound": "CS(=O)(=O)Cc1ccc(Nc2nccc(-c3c(-c4cccc(NC(=O)C5CCCCC5)c4)nn4ncccc34)n2)cc1",
    "qualitative label": "fulfilled"
  },
  {
    "compound": "O=c1cc(N2CCOCC2)nc2n(Cc3cccc(Cl)c3Cl)c3ccccc3n12",
    "qualitative label": "not fulfilled"
  },
  {
    "compound": "CNCc1ccc2nc(NC(=O)c3ccc(C(C)(C)C)cc3)cn2c1",
    "qualitative label": "fulfilled"
  },
  {
    "compound": "O=C1NC(=O)C(c2ccc(Cl)cc2)=C1Nc1ccc(O)cc1",
    "qualitative label": "not fulfilled"
  },
  {
    "compound": "COC(=O)c1cccc(NC(=O)NC2CCN(c3ccnc(Nc4ccc(OC)cc4)n3)C2)c1 (stereo not drawn)",
    "qualitative label": "fulfilled"
  },
  {
    "compound": "CC(C)c1ccc(O)cc1Nc1ccnc2ccc(C(F)(F)F)cc12",
    "qualitative label": "fulfilled"
  }
]
